# credit: ChEMBL document CHEMBL1126800

# Organism: Homo sapiens
# experiment-notes: In vitro inhibition of histamine release from human basophils
# Assay type: functional, organism-based
# condition-summary: Homo sapiens
assay-endpoint: IC50 (µM)
Give bare numbers, in µM.

molecular-string: CN(C)CCOc1ccc(Nc2nccc(-c3cccnc3)n2)cc1
measure-unit: µM
IC50: 0.7

molecular-string: CCOC(=O)C(=O)N(c1ccccc1)c1nccc(-c2ccncc2)n1
measure-unit: µM
IC50: 2.2

molecular-string: COc1ccc(Nc2nccc(-c3cc[n+](C)cc3)n2)cc1
measure-unit: µM
IC50: 33.3

molecular-string: COc1cccc(Nc2nccc(-c3cccnc3)n2)c1
measure-unit: µM
IC50: 0.3

molecular-string: CCOC(=O)c1ccc(Nc2nccc(-c3cccnc3)n2)cc1
measure-unit: µM
IC50: 12.4

molecular-string: Cc1ccccc1Nc1nccc(-c2ccncc2)n1
measure-unit: µM
IC50: 3.9

Here are 5 molecules. What values of IC50 were reported for them?
1. CCN(CC)CCOc1ccc(Nc2nccc(-c3ccco3)n2)cc1
2. c1cc(Nc2nccc(-c3cccnc3)n2)cc(OCCn2ccnc2)c1
3. Cc1ccc(-c2ccnc(Nc3cccc(N(C)C)c3)n2)s1
4. CN(C)c1ccccc1Nc1nccc(-c2ccncc2)n1
5. Cc1cc(-c2ccco2)nc(Nc2ccccc2)n1

1.3
0.1
5.7
36.2
17.7

* * *

# experiment-notes: Tested for toxic concentration in mice
# Type: ADME, organism-based
# condition-summary: mouse, in vivo
assay-endpoint: LD50 (mg/kg)
One number for each entry, in mg/kg.

Record c1ccc(-c2ccnc(Nc3cccc(-n4ccnc4)c3)n2)nc1 . Reported LD50: 800

* * *

Provide the recorded IC50 for the entries that follow.
# Organism: Homo sapiens
# experiment-notes: In vitro inhibition of histamine release from human basophils
# Assay type: functional, organism-based
# condition-summary: Homo sapiens

molecular-string: COc1cccc(Nc2nccc(-c3cc(C)oc3C)n2)c1
IC50: 5.8 µM

molecular-string: COc1cccc(Nc2nccc(-c3cccs3)n2)c1
IC50: 0.9 µM

Here are 2 compounds. What values of IC50 were reported for them?
1. Cc1cc(C)cc(Nc2nc(C)cc(-c3ccccn3)n2)c1
2. CCN(CC)CCOc1ccc(Nc2nccc(-c3cccnc3)n2)cc1

> 24 µM
0.2 µM

Here are 3 compounds. What values of IC50 were reported for them?
1. Cc1cccc(Nc2nccc(-c3ccncc3)n2)c1
2. CC1CCN(c2ccc(Nc3nccc(-c4ccccn4)n3)cc2)CC1
3. COc1ccc(Nc2nccc(-c3ccccn3)n2)cc1

1: 8.8 µM; 2: 1.9 µM; 3: 8.3 µM

Here are 4 compounds. What values of IC50 were reported for them?
1. Cc1cc(C)cc(Nc2ncc(C)c(-c3cccnc3)n2)c1
2. COc1ccc(Nc2nccc(-c3ccncc3)n2)cc1
3. Cc1cccc(Nc2nccc(-c3ccccn3)n2)c1
4. CCc1ccc(Nc2nccc(-c3ccnc4ccccc34)n2)cc1

> 24 µM
4.2 µM
0.7 µM
4 µM

Record Cc1ccc(Nc2nccc(-c3ccccn3)n2)cc1C . Reported IC50: 5.9 µM

* * *

# Organism: Homo sapiens
# experiment-notes: In vitro inhibition of histamine release from human basophils
# Format: functional, organism-based
# condition-summary: Homo sapiens
Provide the recorded pIC50 for the entries that follow.
One number for each entry, as −log10 of the molar value.

Observe how each entry below is paired with its result.
molecular-string: Cc1cc(-c2ccco2)nc(Nc2ccc(N(C)C)cc2)n1
pIC50: 5.23
//
molecular-string: Nc1ccc(Nc2nccc(-c3ccncc3)n2)cc1
pIC50: 5.54
//
molecular-string: Cc1cccc(Nc2nccc(-c3ccco3)n2)c1
pIC50: 5.68
//
molecular-string: Fc1cccc(Nc2nccc(-c3ccccn3)n2)c1
pIC50: 6.00
//
molecular-string: c1ccc(-c2ccnc(Nc3ccc(-n4ccnc4)cc3)n2)nc1
pIC50: 5.85

# evaluate next
Record CCc1cccc(Nc2nccc(-c3ccco3)n2)c1 . Reported pIC50: 5.01
